assay_protocol: inhibitors of hydroxyurea-induced Chk1 phosphorylation, primary screen, imaging, HeLa, phospho-Chk1 nuclear intensity (AID 1187); also: test concentration not given here
experimental_parameters: hydroxyurea-induced phospho-Chk1 immunofluorescence imaging, higher = more signal
Calls of active or inactive are those of the source. No rule for the calls is given here.
value_type: z-score

Example results:
- smiles: "CC#CC(=O)Oc1ccccc1C=CC(=O)OCC"
  measured: "0.195 (inactive)"
- smiles: "[N-]=[N+]=NCc1ccccc1C[C@]1(C(=O)N2CCCCC2)N=C(c2ccc(OCCCO)cc2)O[C@H]1c1ccccc1N=[N+]=[N-]"
  measured: "-0.448 (inactive)"
- smiles: "O=C1O[C@@H](c2ccccc2)[C@@H](c2ccccc2)N2[C@@H](c3ccccc3OCCO)[C@]3(C(=O)Nc4ccccc43)[C@@H](C(=O)Nc3nc4ccccc4s3)[C@H]12"
  measured: "0.794 (inactive)"

Moving on to another compound below.
QUERY: Give its z-score value. Item: CCCCCCc1nc(-c2cc(C)c(OC)c(C)c2)cc2c1[Si](C(C)C)(C(C)C)OC2
RESULT: -0.188 (inactive)

###

measurement_target: Concanavalin-A (Canavalia ensiformis) (UniProt P02866)
Sequence (P02866 whole entry, looked up): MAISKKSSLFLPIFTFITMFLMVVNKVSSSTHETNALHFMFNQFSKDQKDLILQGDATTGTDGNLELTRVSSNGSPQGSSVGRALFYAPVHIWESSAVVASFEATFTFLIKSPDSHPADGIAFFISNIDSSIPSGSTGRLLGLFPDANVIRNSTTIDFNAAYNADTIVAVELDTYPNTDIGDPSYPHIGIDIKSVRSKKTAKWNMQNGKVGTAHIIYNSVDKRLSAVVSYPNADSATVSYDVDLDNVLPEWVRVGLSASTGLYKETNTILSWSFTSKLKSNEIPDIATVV
assay_protocol: ConA small-molecule binders, primary screen, artefact control for SMM control protein annotation, biochemical, small-molecule microarray, Alexa647 label, 635 nm (AID 1127);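 also: z combines 667 nm emission intensity with signal-to-noise across three replicate slides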
experimental_parameters: ConA-A647 binding fluorescence, higher = more signal
value_type: composite z-score
# output: bare number, no unit

- molecule: "C[C@H]1NC(=O)[C@@]23C(=O)N[C@@H](Cc4ccccc4)C2[C@H](C)[C@@]2(C)O[C@H]2C3/C=C/C/C=C\\CNC(=O)[C@@H]2CCCN2C1=O (stereo partly drawn)"
  measurement_target: "Concanavalin-A (Canavalia ensiformis) (UniProt P02866)"
  value_type: "composite z-score"
  measured: 1.13
- molecule: "COc1ccc([C@H]2OC[C@@H]3C[C@@H](Cc4ccccc4)C(=O)N32)cc1"
  measurement_target: "Concanavalin-A (Canavalia ensiformis) (UniProt P02866)"
  value_type: "composite z-score"
  measured: 0.143
- molecule: "C=C(/C(=C/C[C@H](OC(C)=O)c1ccccc1OCCO)c1cnc2ccccc2c1)C(C)C"
  measurement_target: "Concanavalin-A (Canavalia ensiformis) (UniProt P02866)"
  value_type: "composite z-score"
  measured: 0.922

QUERY: Recorded composite z-score for O=C1C2C=CC(C(O)Cc3ccccc3)N(n3cnnc3)C2C(=O)N1Cc1ccccc1 (stereo not drawn) with Concanavalin-A (Canavalia ensiformis) (UniProt P02866), please?
RESULT: 0.779

QUERY: Recorded composite z-score for C=C(CCCC)/C(=C/C[C@@H](OC(=O)c1ccncc1)c1ccc(OCCO)cc1)c1cc(C(=O)OC)ccc1OC with Concanavalin-A (Canavalia ensiformis) (UniProt P02866), please?
RESULT: 0.249

QUERY: Recorded composite z-score for COC(=O)[C@@]1(Cc2ccc(F)cc2)[C@H]2c3cc(C(=O)N(C)C)n(Cc4ccc(Cl)c(C(F)(F)F)c4)c3C[C@H]2CN1C(=O)c1ccccc1 with Concanavalin-A (Canavalia ensiformis) (UniProt P02866), please?
RESULT: 1.15

QUERY: Recorded composite z-score for O=C(c1ccccc1)N1C(=O)[C@@]2(Cc3ccccc31)N=C(c1ccc(OCCCO)cc1)O[C@H]2c1ccccc1 with Concanavalin-A (Canavalia ensiformis) (UniProt P02866), please?
RESULT: 1.14

QUERY: Recorded composite z-score for C=C(C)[C@@H]1CC=C(C(O)C2C=CC3C(=O)N(C)C(=O)C3N2Nc2ccccc2)CC1 (stereo partly drawn) with Concanavalin-A (Canavalia ensiformis) (UniProt P02866), please?
RESULT: 0.183
